The origin of these recorded values is patent US7772241B2.

Test system: DU-145
Assay: Inhibition of cells growth by colorimetric (SRB) assay, DU-145
Conditions: Homo sapiens, DU-145, 48 h, read-out: GI50 DU-145, SRB assay, 48 hours exposure
Protocol: The finality of these assays is to interrupt the growth of a “in vitro” tumor cell culture by means a continued exhibition of the cells to the sample to be testing. […] Cells are seeded in 96 well microtiter plates, at 5×10^3 cells per well in aliquots of 195 μl medium, and they are allowed to attach to the plate surface by growing in drug free medium for 18 hours. […] Optical densities are read on a automated spectrophotometric plate reader at a single wavelength of 490 nm. […]
MEASURED QUANTITY: GI50 (nM)
Kindly provide the numeric value in nM only, without the unit symbol.

// known answers, use as guide
Query: Item C[S+]([O-])c1nccc(-c2c3c(Cl)ccnc3n3c(N)nccc23)n1 (centres unmarked) with DU-145 - GI50?
Result: 2030

Query: Next molecule: `Cc1ccc2c(-c3ccnc(N)n3)c3ccnc(N)n3c2n1.Cl`
Result: 475

Query: Try this molecule next: `Nc1nccc2c(-c3ccnc(O)n3)c3cccnc3n12`
Result: 1810

Query: Queued: `Cl.Nc1nccc(-c2c3cccnc3n3c(N)nccc23)n1`
Result: 65.4

Query: And `Nc1nccc2c(-c3ccnc(Oc4ccccc4)n3)c3cccnc3n12` ?
Result: 770

More entries:
Query: Please tell me: GI50 of `Nc1nccc(-c2c3cc(Cl)cnc3n3c(N)nccc23)n1` , system DU-145?
Result: 5330

Query: Also check `Nc1nccc2c(-c3cccc([N+](=O)[O-])c3)c3cccnc3n12`
Result: 31000
